# target desc: Endothelin-converting enzyme 1 (Rattus norvegicus)
# Sequence (P42893 whole entry): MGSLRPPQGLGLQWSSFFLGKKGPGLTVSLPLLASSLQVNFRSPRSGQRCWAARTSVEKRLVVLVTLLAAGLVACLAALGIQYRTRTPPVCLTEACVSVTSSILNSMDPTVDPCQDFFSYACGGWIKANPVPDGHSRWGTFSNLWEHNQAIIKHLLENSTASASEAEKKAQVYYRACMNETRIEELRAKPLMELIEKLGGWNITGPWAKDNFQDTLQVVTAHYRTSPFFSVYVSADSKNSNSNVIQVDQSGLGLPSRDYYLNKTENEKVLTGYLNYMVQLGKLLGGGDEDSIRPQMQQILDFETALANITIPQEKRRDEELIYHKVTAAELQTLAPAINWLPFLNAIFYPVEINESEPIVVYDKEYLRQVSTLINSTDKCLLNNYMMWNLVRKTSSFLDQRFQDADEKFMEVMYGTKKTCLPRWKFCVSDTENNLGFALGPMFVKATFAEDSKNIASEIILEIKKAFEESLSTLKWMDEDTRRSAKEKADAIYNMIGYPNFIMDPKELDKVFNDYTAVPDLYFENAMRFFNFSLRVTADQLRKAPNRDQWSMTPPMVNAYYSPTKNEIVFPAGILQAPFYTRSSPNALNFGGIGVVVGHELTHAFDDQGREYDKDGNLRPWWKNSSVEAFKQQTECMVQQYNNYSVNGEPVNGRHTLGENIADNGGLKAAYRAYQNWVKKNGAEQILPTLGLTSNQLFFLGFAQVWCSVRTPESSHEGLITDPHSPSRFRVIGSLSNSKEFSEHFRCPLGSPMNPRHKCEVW
Give IC50 for every item shown.
The figure you give is taken to be in nM; do not add the unit.

Kindly note the recorded IC50 for CC(C)(C)CC(=O)Nc1ccc2c(c1)cc(C(=O)Nc1ccccc1)n2Cc1ccccc1F , which is 1800

Form field IC50, entry CC(C)(C)CC(=O)Nc1ccc2c(c1)cc(C(=O)Nc1ccc(S(=O)(=O)Nc3ccccn3)cc1)n2Cc1ccccc1F : 410

What the record says about CC(C)(C)CC(=O)Nc1ccc2c(c1)cc(C(=O)Nc1ccc(Cl)nc1)n2Cc1ccccc1F : IC50 is 220
